Test system: ScN2a
protocol text: Antiprion activity in mouse ScN2a cells assessed as reduction in PrPSc level at 2 uM after 3 days by dot blot assay relative to control
Type: cell-based
Set-up: scale not given: the % may be the effect or the level left
assay metric: Activity (%)
Provide the reading as a plain figure in %.

| structure notation | Activity, % |
| --- | --- |
| CCCCNC(=O)c1cc(NC(=O)CN2CCCC2)ccc1Oc1ccc(OC)cc1 | 36 |
| CCCCNC(=O)c1cc(NC(=O)CN2CCCCC2)ccc1OC12CC3CC(CC(C3)C1)C2 | 27 |
| CCCCNC(=O)c1cc(NC(=O)CN2CCCCC2)ccc1Oc1ccc(C)cc1 | 36 |
| CCCCNC(=O)c1cc(NC(=O)CN2CCCC2)ccc1Oc1ccc(C(C)C)cc1 | 32 |
| CCCCNC(=O)c1cc(NC(=O)CN2CCCC2)ccc1Oc1ccc(C)cc1 | 32 |

Consider the compound shown here: `CCCCNC(=O)c1cc(NC(=O)CN2CCCCC2)ccc1Oc1ccc(OC)cc1` What is its recorded Activity? 49

Activity for `CCCCNC(=O)c1cc(NC(=O)CN2CCCCC2)ccc1Oc1ccc(F)cc1` ? 35

I'd like to know its Activity. The compound in question is `CCCCNC(=O)c1cc(NC(=O)CN2CCCC2)ccc1OC(C)C` 42

Reported Activity for `CCCCNC(=O)c1cc(NC(=O)CN2CCCCC2)ccc1Oc1ccc(OCCCC)cc1` : what is it? 61

Entry `CCCCNC(=O)c1cc(NC(=O)CN2CCCCC2)ccc1Oc1ccccc1` has what Activity? 50

Reported Activity, compound `CCCCNC(=O)c1cc(NC(=O)CN2CCCCC2)ccc1Oc1ccccc1C(F)(F)F` : ____ 39

Looking for the measured Activity of `CCCCNC(=O)c1cc(NC(=O)CN2CCCC2)ccc1Oc1ccccc1C(F)(F)F` , can you help? 16

Please give the measured Activity for this compound: `CCCCNC(=O)c1cc(NC(=O)CN2CCCC2)ccc1OC1CCCCC1` 38

For `CCCCNC(=O)c1cc(NC(=O)CN2CCCCC2)ccc1OC(C)C` , what is its reported Activity? 78

If you can, please state the reported Activity value of `C#CCOc1ccc(NC(=O)CN2CCCCC2)cc1C(=O)NCCCC` . 76

Query (compound): `CCCCNC(=O)c1cc(NC(=O)CN2CCCC2)ccc1Oc1ccc(Cl)cc1` ; field requested: Activity 25

I am curious: what Activity value has been reported for `C#CCOc1ccc(NC(=O)CN2CCCC2)cc1C(=O)NCCCC` ? 43

Can you look up the measured Activity of `CCCCNC(=O)c1cc(NC(=O)CN2CCCCC2)ccc1Oc1ccc(C(C)C)cc1` for me? 43

What value of Activity has been reported for the following compound? `CCCCNC(=O)c1cc(NC(=O)CN2CCCCC2)ccc1Oc1ccc(C(F)(F)F)cc1` 35
